Cited source for all entries: patent US20240150365A1

Target: MALT1 (Homo sapiens)
Sequence (Q9UDY8 1-824): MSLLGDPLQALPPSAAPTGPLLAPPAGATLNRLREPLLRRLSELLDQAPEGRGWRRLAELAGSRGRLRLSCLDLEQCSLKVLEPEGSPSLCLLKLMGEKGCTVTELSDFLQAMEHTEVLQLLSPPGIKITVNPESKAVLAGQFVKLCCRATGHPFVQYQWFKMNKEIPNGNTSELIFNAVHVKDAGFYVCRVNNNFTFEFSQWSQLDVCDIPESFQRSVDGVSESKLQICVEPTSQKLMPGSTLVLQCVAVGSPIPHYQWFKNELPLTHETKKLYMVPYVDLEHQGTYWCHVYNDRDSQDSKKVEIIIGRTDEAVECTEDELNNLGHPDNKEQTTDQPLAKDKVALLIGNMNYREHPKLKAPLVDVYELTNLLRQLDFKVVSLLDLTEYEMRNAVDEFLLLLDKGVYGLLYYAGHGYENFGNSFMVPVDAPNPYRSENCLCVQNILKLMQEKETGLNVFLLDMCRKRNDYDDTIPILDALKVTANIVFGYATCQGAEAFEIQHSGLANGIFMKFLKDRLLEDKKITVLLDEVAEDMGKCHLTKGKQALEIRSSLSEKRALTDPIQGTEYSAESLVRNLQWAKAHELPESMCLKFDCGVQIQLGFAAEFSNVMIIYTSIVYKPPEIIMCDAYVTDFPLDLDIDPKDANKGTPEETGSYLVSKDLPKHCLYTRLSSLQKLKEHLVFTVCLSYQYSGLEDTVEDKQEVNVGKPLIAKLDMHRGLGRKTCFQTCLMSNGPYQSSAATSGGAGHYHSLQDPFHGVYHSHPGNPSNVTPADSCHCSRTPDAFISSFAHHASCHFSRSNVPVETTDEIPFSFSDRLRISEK
pIC50: −log10 of the molar value.
assayReadout: pIC50

smiles: COc1ccc2cnn(C)c2c1N(CCCN(C)C)S(=O)(=O)c1ccc(-n2cc(C(F)(F)F)cn2)nc1
measuredResult: > 6.40
//
smiles: Cc1nn(-c2ccc(S(=O)(=O)Nc3cccc4cnn(C)c34)cn2)c(C)c1Cl
measuredResult: < 5.60
//
smiles: Cn1ncc2cccc(NS(=O)(=O)c3ccc(-n4nccc4C4CC4)nc3)c21
measuredResult: < 5.60
//
smiles: COc1ncc2cnn(C)c2c1NS(=O)(=O)c1ccc(-n2nc(C(F)(F)F)c3c2CCOC3)nc1
measuredResult: > 6.40
//
smiles: Cc1cncc(-c2ccc(S(=O)(=O)Nc3cccc4cnn(C)c34)cn2)c1
measuredResult: < 5.60

Q: Quick one: pIC50 of "COc1ccc2cnn(C)c2c1NS(=O)(=O)c1ccc(-c2cnn(C)c2)nc1" ?
A: 5.60 to 6.00

Q: Quick one: pIC50 of "COc1ncc2cnn(C)c2c1NS(=O)(=O)c1ccc(-n2cc(C(C)C)cn2)nc1" ?
A: > 6.40

Q: Quick one: pIC50 of "Cn1ncc2cccc(NS(=O)(=O)c3ccc(-n4cc(C5CC5)cn4)nc3)c21" ?
A: 5.60 to 6.00
